Molecular target: A1PI (Homo sapiens)
Construct: Human plasma is currently the only approved source of therapeutic AlPI
Assay: A1PI binding on peptide-resin column, injection of 1 mg A1PI in equilibration buffer
Settings: VIFLVR point mutations; 1 mg A1PI, 20° C.
assay_readout: % of Total A1PI Eluted by Fraction (Based on Absorbance at 280 nm), Flowthrough (%)

# annotated cases, reported % of Total A1PI Eluted by Fraction (Based on Absorbance at 280 nm), Flowthrough shown
{"substance": "D I F L V R: point mutation of VIFLVR, position 1 (DIFLVR)", "readout_number": 70}
{"substance": "V K F L V R: point mutation of VIFLVR, position 2 (VKFLVR)", "readout_number": 0}
{"substance": "H I F L V R: point mutation of VIFLVR, position 1 (HIFLVR)", "readout_number": 0}

1. V I F L Y R: point mutation of VIFLVR, position 5 (VIFLYR)
2. V I F A V R: point mutation of VIFLVR, position 4 (VIFAVR)
Ask: // pick larger % of Total A1PI Eluted by Fraction (Based on Absorbance at 280 nm), Flowthrough from pair: 1 vs 2 Your choice should be expressed through its label.
Reply: 1

---

Biological target: apolipoprotein alpha-1 (Apo A-1) (Homo sapiens)
Construct: Eff; II+III is a process intermediate in the Cohn plasma fractionation process; tissue Bayer Corporation (Clayton, N.C.); host or cells: plasma fraction: Cohn Effluent II+III
Sequence (P02647 19-267): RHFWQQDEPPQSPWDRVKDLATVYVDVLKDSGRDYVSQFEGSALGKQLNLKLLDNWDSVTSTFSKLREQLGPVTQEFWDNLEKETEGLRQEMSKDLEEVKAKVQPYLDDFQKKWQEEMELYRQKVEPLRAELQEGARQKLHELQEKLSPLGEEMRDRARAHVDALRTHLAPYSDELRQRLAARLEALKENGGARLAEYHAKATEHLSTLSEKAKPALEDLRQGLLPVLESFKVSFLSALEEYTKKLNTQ
Assay: Purification from Effluent II+III, Apo A-1 mass balance
Type: binding
Conditions: 1 ml Eff. II+III, 4° C., * as in Tables 4, 5 (below detection limit)
Ends that are not written are not given here.
assay_readout: Mass Protein per Eluate Fraction, 2% Acetic Acid (mg)

{"substance": "RLWRYG", "readout_number": 0.35}
{"substance": "YKFRFW", "readout_number": 0.31}
{"substance": "ARWYIH", "readout_number": 0.29}
{"substance": "LIVHRW", "readout_number": 0.30}
{"substance": "IIWLYK", "readout_number": 0.43}
{"substance": "VIWLVR", "readout_number": 0.29}
{"substance": "RAFWYI", "readout_number": 0.29}
{"substance": "RYRIFI", "readout_number": 0.39}
{"substance": "RFIYYT", "readout_number": 0.37}

---

Target: A1PI (Homo sapiens, UniProt P01009)
Construct: Human plasma is currently the only approved source of therapeutic AlPI
Sequence (P01009 25-418): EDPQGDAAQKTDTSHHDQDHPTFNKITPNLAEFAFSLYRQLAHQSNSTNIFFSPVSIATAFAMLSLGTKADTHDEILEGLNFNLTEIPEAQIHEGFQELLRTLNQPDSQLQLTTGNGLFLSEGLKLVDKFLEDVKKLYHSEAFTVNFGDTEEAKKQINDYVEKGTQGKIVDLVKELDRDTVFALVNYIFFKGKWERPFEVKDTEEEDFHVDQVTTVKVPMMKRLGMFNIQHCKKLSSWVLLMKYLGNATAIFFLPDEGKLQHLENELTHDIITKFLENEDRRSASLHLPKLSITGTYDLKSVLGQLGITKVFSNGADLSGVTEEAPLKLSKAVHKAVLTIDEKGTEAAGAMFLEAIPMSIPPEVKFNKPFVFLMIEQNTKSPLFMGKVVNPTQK
Test: A1PI purification from 5 mg hSA + 1 mg A1PI on peptide column, A1PI mass balance
Format: binding
Details: A1PI; 5 mg hSA + 1 mg A1PI, 4° C.; * Below detection limit
Ends that are not written are not given here.
assay_readout: Mass Protein per Eluate Fraction, 3M NaCl (mg)

# annotated cases, reported Mass Protein per Eluate Fraction, 3M NaCl shown
{"substance": "YKFRFW", "readout_number": 0.04}
{"substance": "RFIYYT", "readout_number": 0.04}

A. VIWLVR
B. ARWYIH
C. PYWIVR
Ask: Order each entry by recorded Mass Protein per Eluate Fraction, 3M NaCl, climbing from the minimum. Reply with the item labels sorted in the order that was asked for.
Reply: A, C, B
(A: 0.01 mg, C: 0.02 mg, B: 0.04 mg)

---

Target: A1PI (Homo sapiens)
Construct: Human plasma is currently the only approved source of therapeutic AlPI
Assay: Purification of A1PI from Effluent II+III on peptide column, A1PI mass balance
Type: binding
Settings: Table 11; A1PI; 1 ml Eff. II+III, 4° C.
Ends that are not written are not given here.
assay_readout: Percent Eluted by Fraction, 1M NaCl (%)

# annotated cases, reported Percent Eluted by Fraction, 1M NaCl shown
{"substance": "VIWLVR", "uom": "%", "Percent Eluted by Fraction, 1M NaCl": 9}
{"substance": "V I N L V R: VIWLVR with Trp at position 3 replaced by Asn (VINLVR)", "uom": "%", "Percent Eluted by Fraction, 1M NaCl": 0}
{"substance": "V I S L V R: VIWLVR with Trp at position 3 replaced by Ser (VISLVR)", "uom": "%", "Percent Eluted by Fraction, 1M NaCl": 26}
{"substance": "VIYLVR: VIWLVR with Trp at position 3 replaced by Tyr", "uom": "%", "Percent Eluted by Fraction, 1M NaCl": 6}
{"substance": "V I L L V R: VIWLVR with Trp at position 3 replaced by Leu (VILLVR)", "uom": "%", "Percent Eluted by Fraction, 1M NaCl": 7}

I. V I A L V R: VIWLVR with Trp at position 3 replaced by Ala (VIALVR)
II. V I V L V R: VIWLVR with Trp at position 3 replaced by Val (VIVLVR)
III. VIFLVR
Ask: Given 3 substances, produce a descending ranking by Percent Eluted by Fraction, 1M NaCl. Reply with the item labels sorted in the order that was asked for.
Reply: I, II, III

---

Target: A1PI (Homo sapiens, UniProt P01009)
Construct: Human plasma is currently the only approved source of therapeutic AlPI
Assay: A1PI binding on peptide-resin column, injection of 1 mg A1PI in equilibration buffer
Conditions: 1 mg A1PI in equilibration buffer, 4° C.
Ends that are not written are not given here.
assay_readout: Percent A1PI Eluted by Fraction Based on Absorbance at 280 nm, 1M NaCl (%)

a. IIe Lys Arg Tyr Tyr Leu (IKRYYL)
b. VIWLVR
Ask: Returns the identifier with the smallest measured Percent A1PI Eluted by Fraction Based on Absorbance at 280 nm, 1M NaCl among a and b . Your choice should be expressed through its label.
Reply: b
(b: 25%, a: 97%)

P. RLWRYG
Q. RYRIFI
Ask: Returns the identifier with the smallest measured Percent A1PI Eluted by Fraction Based on Absorbance at 280 nm, 1M NaCl among P and Q . Your choice should be expressed through its label.
Reply: Q
(Q: 40%, P: 88%)

A. IKRYYN
B. YKFRFW
Ask: // pick larger Percent A1PI Eluted by Fraction Based on Absorbance at 280 nm, 1M NaCl from pair: A vs B Your choice should be expressed through its label.
Reply: A
(A: 100%, B: 64%)

A. WSSKRY
B. IIWLYK
Ask: // pick larger Percent A1PI Eluted by Fraction Based on Absorbance at 280 nm, 1M NaCl from pair: A vs B Your choice should be expressed through its label.
Reply: A
(A: 91%, B: 52%)

---

Target: A1PI (Homo sapiens)
Construct: Human plasma is currently the only approved source of therapeutic AlPI
Assay: A1PI purification from 5 mg hSA + 1 mg A1PI on peptide column, A1PI mass balance
Assay type: binding
Conditions: A1PI; 5 mg hSA + 1 mg A1PI, 20° C.; relative to total eluted
Ends that are not written are not given here.
assay_readout: Percent Eluted by Fraction, 2% Ac. Acid (%)

I. WIKWTK
II. LIVHRW
Ask: // pick larger Percent Eluted by Fraction, 2% Ac. Acid from pair: I vs II Your choice should be expressed through its label.
Reply: II
(II: 43%, I: 0%)

A. RFIYYT
B. ARWYIH
C. VIWLVR
D. YKFRFW
Ask: Given 4 substances, produce a descending ranking by Percent Eluted by Fraction, 2% Ac. Acid. Reply with the item labels sorted in the order that was asked for.
Reply: C, A, D, B

P. RLWRYG
Q. IWRKYS
Ask: Returns the identifier with the smallest measured Percent Eluted by Fraction, 2% Ac. Acid among P and Q . Your choice should be expressed through its label.
Reply: Q

---

Molecular target: A1PI (Homo sapiens)
Construct: Human plasma is currently the only approved source of therapeutic AlPI
Assay: A1PI yield from dialyzed (aqueous) Effluent II+III
Assay type: binding
Details: 1 ml dialyzed Eff. II+III (ethanol removed), 4° C.
Ends that are not written are not given here.
assay_readout: Mass A1PI per Eluate Fraction, 1M NaCl (mg)

{"substance": "VIYLVR: VIWLVR with Trp at position 3 replaced by Tyr", "Mass A1PI per Eluate Fraction, 1M NaCl [mg]": 0.12}

a. ARWYIH
b. VIFLVR
c. IIWLYK
Ask: Given 3 substances, produce a descending ranking by Mass A1PI per Eluate Fraction, 1M NaCl. Reply with the item labels sorted in the order that was asked for.
Reply: a, b, c

---

Target: A1PI (Homo sapiens)
Construct: Human plasma is currently the only approved source of therapeutic AlPI
Assay: A1PI purification from 5 mg hSA + 1 mg A1PI on peptide column, A1PI mass balance
Format: binding
Settings: A1PI; 5 mg hSA + 1 mg A1PI, 4° C.; relative to total eluted
Ends that are not written are not given here.
assay_readout: Percent Eluted by Fraction, 1M NaCl (%)

{"substance": "ARWYIH", "assay_readout": "Percent Eluted by Fraction, 1M NaCl", "readout_number": 43}

I. QYHFWY
II. WKLWRW
III. IWRKYS
IV. RFIYYT
V. IIWLYK
Ask: Order each entry by recorded Percent Eluted by Fraction, 1M NaCl, climbing from the minimum. Reply with the item labels sorted in the order that was asked for.
Reply: V, IV, I, II, III
(V: 13%, IV: 27%, I: 46%, II: 66%, III: 96%)

1. PYWIVR
2. RLWRYG
Ask: // pick larger Percent Eluted by Fraction, 1M NaCl from pair: 1 vs 2 Your choice should be expressed through its label.
Reply: 2
(2: 80%, 1: 44%)

A. RAFWYI
B. LIVHRW
Ask: // pick larger Percent Eluted by Fraction, 1M NaCl from pair: A vs B Your choice should be expressed through its label.
Reply: B
